B1: TPR t1 (parent)
chain: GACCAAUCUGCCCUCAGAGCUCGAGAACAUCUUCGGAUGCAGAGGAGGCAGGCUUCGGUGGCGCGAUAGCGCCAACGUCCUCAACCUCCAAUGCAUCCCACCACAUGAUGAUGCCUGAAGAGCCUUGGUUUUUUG

Variants of: B1
Measurement Notes: polymerase ribozyme fitness, log enrichment relative to wild type (log ratio); higher = more active; in vitro selection for triplet polymerase activity
Readout Label: polymerase ribozyme fitness (log ratio)
A bare number is all that is needed in reply.

Lab note: measured polymerase ribozyme fitness (log ratio) of A43C G69C was -4.47

Lab note: measured polymerase ribozyme fitness (log ratio) of G10U C13U G60C G107A U112C G127U was -4.55

Lab note: measured polymerase ribozyme fitness (log ratio) of G45U C56A U59G C101G G120A G128A G135A was -3.75

Lab note: measured polymerase ribozyme fitness (log ratio) of A43C C94U was -2.66

Lab note: measured polymerase ribozyme fitness (log ratio) of A66U C73A C89U was -1.72

Lab note: measured polymerase ribozyme fitness (log ratio) of C11G C70U was 0.101

Lab note: measured polymerase ribozyme fitness (log ratio) of G44C G61C U78C C98A G113U was -7.8

Lab note: measured polymerase ribozyme fitness (log ratio) of C20A C40A C72U C73U was -4.3

Lab note: measured polymerase ribozyme fitness (log ratio) of C20A G48U was -3.37

Lab note: measured polymerase ribozyme fitness (log ratio) of C49A U81A U87G was -0.13

Lab note: measured polymerase ribozyme fitness (log ratio) of A24G G69U was -0.509

Lab note: measured polymerase ribozyme fitness (log ratio) of A6U U9G G63A C104U C115U G117U was -3.69

Lab note: measured polymerase ribozyme fitness (log ratio) of G69C C85A was -2.84

Lab note: measured polymerase ribozyme fitness (log ratio) of U14A C101U was -3.07

Lab note: measured polymerase ribozyme fitness (log ratio) of A2C C40G C56G C72G C124U was -4.17

Lab note: measured polymerase ribozyme fitness (log ratio) of A5U U7A C40G U55G C56U G60A U130C was -1.94

Lab note: measured polymerase ribozyme fitness (log ratio) of C11A G39C G110C was -5.5

Lab note: measured polymerase ribozyme fitness (log ratio) of C53A U112A was 0.632
